system: NCI/ADR-RES ovarian; assay: NCI tumour cell line growth inhibition, 48 h

# compound, operator symbol, TGI [µM]
data = [
    ("O=C1CSC(=S)N1Cc1cccnc1", ">", 100),
    ("O=C1OC2c3ccccc3C(=O)C2(c2ccccc2)N1c1ccccc1 (stereo unspecified)", ">", 200),
    ("COc1cc2c3c(n(CCCNC(=O)OCC4c5ccccc5-c5ccccc54)c(=O)c2cc1OC)-c1cc2c(cc1C3=O)OCO2", ">", 100),
    ("O=C1/C(=C/c2ccc([N+](=O)[O-])o2)Oc2ccccc21", "=", 11.7),
    ("CCCCCCCCCCCCSC(=NC)NC", "=", 4.53),
    ("CN(C)c1ccc(/C=C/c2ccnc3ccccc23)cc1N", "=", 53.9),
    ("O=c1c2ccccc2c2c1c1c3ccccc3c(=O)c1c1c3ccccc3c(=O)c21", ">", 100),
    ("Cc1nc(N)c(N2CCN(Cc3ccccc3)CC2)c(=O)[nH]1", ">", 100),
    ("COc1cc(Nc2ncc3c(C)nc(-c4cccc(Oc5ccccc5)c4)n3n2)cc(OC)c1OC", ">", 25),
    ("NC(N)=NS(=O)(=O)c1ccc(Nc2c3ccccc3nc3c(C(=O)NC(CO)(CO)CO)cccc23)cc1", ">", 100),
    ("COC1=CC(=O)c2c(O)ccc(O)c2C1=O", "=", 60.2),
    ("O=C1Nc2ccccc2/C1=C/c1cn(C(=O)c2c(Cl)cccc2Cl)c2ccccc12", "=", 18),
    ("COc1cc(OC)c2cc(C(=O)O)c(=O)oc2c1", ">", 100),
    ("C[C@@H]1OC(=O)C[C@H]2CC(=O)N(CCC3CN(S(=O)(=O)C(F)(F)F)c4ccc(Cc5ccc6c(c5)C(CCN5C[C@H]7[C@@H](CC(=O)O[C@H]7C)CC5=O)CN6S(=O)(=O)C(F)(F)F)cc43)C[C@@H]21 (stereo partly specified)", ">", 100),
    ("Cn1c(=O)c2nc3nnc(C#N)c(N)n3c2n(C)c1=O", ">", 100),
    ("O=C1N(CN2CCOCC2)CN(CN2CCOCC2)C(=O)N1Cc1ccccc1", "=", 61.7),
    ("c1ccc(/N=N\\Nc2ccc(-c3nc4ccccc4o3)cc2)nc1", ">", 100),
    ("O=C1/C(=C/c2ccc(Cl)cc2)CN(Cc2cn(CCNc3ccnc4cc(Cl)ccc34)nn2)C/C1=C\\c1ccc(Cl)cc1", "=", 2.24),
    ("CC(C)=CCc1ccc(O)c(=O)cc1C(C)C", "=", 2.74),
    ("CC1(C)CCCCCC(C)(CCCCCCCCCCCO)C1=O (stereo unspecified)", "=", 27),
    ("C=C(C)[C@@H]1CC[C@]2(C(=O)O)CC[C@]3(C)[C@H](CC[C@@H]4[C@@]5(C)C[C@@H](CC#Cc6ccc(Br)cc6)C(=O)C(C)(C)[C@@H]5CC[C@]43C)[C@@H]12", ">", 100),
    ("CC(C)=CC(O)C/C(C)=C/CC/C(C)=C/CCC1(C)C(CCCO)/C(=C(/C)C=O)CCC1(C)O (stereo unspecified)", ">", 100),
    ("COc1cc(C(=O)N2CCN(c3ccccc3OC)CC2)c(N)cc1OCc1ccccc1", ">", 100),
    ("CN1C(=O)c2cc([N+](=O)[O-])ccc2[C@H]2C(=O)c3cc4c(cc3[C@H]21)OCO4", "=", 15.2),
    ("CCOC(=O)NC(NNc1ccc([N+](=O)[O-])cc1[N+](=O)[O-])(C(F)(F)F)C(F)(F)F", ">", 100),
    ("COc1ccc(N2CCN(Cc3c(C(C)=O)[n+](=O)c4ccccc4n3[O-])CC2)cc1", ">", 100),
    ("Cc1ccc(S(=O)C[C@@]2(C(F)F)NC(=O)NC2=O)cc1 (stereo partly specified)", ">", 100),
    ("c1ccc2c(c1)CCN1CCc3c([nH]c4ccccc34)C21 (stereo unspecified)", "=", 56.9),
    ("O=C(CC(O)c1ccncc1)c1ccccc1 (stereo unspecified)", ">", 100),
    ("N#CC(C#N)=Cc1ccc(C=C2SC3=C(SCCS3)S2)s1", "=", 42.8),
    ("COc1cc(C(=O)/C=C/c2c(-c3ccc(F)cc3)nc3ncccn23)cc(OC)c1OC", "=", 5.11),
]

----------
// TGI lookup, one value per entry
test system: LXFL 529 NSCLC; assay: NCI tumour cell line growth inhibition, 48 h

# compound, TGI
records = [
    ("Oc1ccc2c3c1OC1C(=NN=C4CCC5(O)C6Cc7ccc(O)c8c7C5(CCN6CC5CC5)C4O8)CCC4(O)C(C2)N(CC2CC2)CCC314 (stereo not drawn)", "43.5 µM"),
    ("N#CCCN(CCC#N)c1ccc(/C=N\\c2nc(-c3ccccc3)cs2)cc1", "> 100 µM"),
    ("Cn1cnc([N+](=O)[O-])c1Sc1nc2cccnc2s1", "25 µM"),
    ("COc1ccc2cc3[n+](cc2c1OC)CCc1cc2c(cc1-3)OCO2", "> 74.9 µM"),
    ("O=C1c2ccccc2C(=O)C2C3c4ccccc4C(c4ccccc43)C12 (stereo not drawn)", "37.2 µM"),
    ("C=CCC12CC(=O)C=C1CCC1(C2)OCCO1 (stereo not drawn)", "> 100 µM"),
    ("N#Cc1c(-c2ccc(Cl)cc2)c(-c2ccc(Cl)cc2)nn(CCOC(=O)CCC(=O)O)c1=O", "> 100 µM"),
    ("CC1C=CC(C)C2(O)C(=O)NC(O)C12 (stereo not drawn)", "> 100 µM"),
]

----------
tested on: CCRF-CEM leukemia; test: NCI tumour cell line growth inhibition, 48 h
Overview of recorded TGI for various molecules

# molecule, operator symbol, TGI [µM]
data = [
    ("COC1=CC(=O)c2c(O)ccc(O)c2C1=O", "=", 43.6),
    ("O=C(N1CCC(CN=c2cc3n(-c4ccc(Cl)cc4)c4ccccc4nc-3cc2Nc2ccc(Cl)cc2)CC1)N1CC1", "=", 1.15),
    ("CC(C)CCNC(=O)c1ccc(CNC(=O)/C=C/c2csc(-c3ccccc3)n2)cc1", ">", 100),
    ("O=Cc1[nH]c(=O)[nH]c(=O)c1CCl", ">", 85.8),
    ("COCOCc1cc(OCc2ccccc2)c(OC)cc1Br", ">", 100),
    ("c1ccc2c(Nc3ccc(Oc4ccc(Nc5c6ccccc6nc6ccccc56)cc4)cc3)c3ccccc3nc2c1", "=", 0.719),
    ("Cc1nc2c(n1CCC(C)C)C(=O)c1ccccc1C2=O", "=", 53.9),
    ("COc1ccc2c[n+](C)c3c4cc(OC)c(OC)cc4ccc3c2c1", "=", 31.2),
    ("COc1cc(C2CC(c3ccc(Nc4ccnc5cc(Cl)ccc45)cc3)=NN2C=O)cc(OC)c1OC (stereo unspecified)", "=", 69.4),
    ("COc1cc2c(oc(=O)c3cc4ccoc4c(OC)c32)c2cccc(O)c12", ">", 100),
    ("COc1ccc(/C(=N\\O)c2cc(OC)c(OC)c(OC)c2)c(OC)c1N", ">", 100),
]

----------
test system: SK-MEL-28 melanoma; assay: NCI tumour cell line growth inhibition, 48 h; in the data active = GI50 below about 0.43 µM; inactive = the rest
Labels: active, inactive

# molecule, class label
records = [
    ("COc1ccc(N(C)c2nc(Cl)nc3ccn(C)c23)cc1", "inactive"),
    ("CCC[CH2][Sn]1([CH2]CCC)[O]C(=O)c2cccc(OC)c2[O]1", "active"),
    ("CC1CC(C)/C(=N/NC(N)=O)C(C(O)CC2CCC(=O)NC2=O)C1 (configuration not stated)", "inactive"),
    ("Cn1ccnc1C(=O)/C=C/c1ccc(C(=O)Nc2ccccc2O)cc1", "inactive"),
    ("Cc1cc(NCCCCNc2ccnc3cc(Cl)ccc23)nc(Nc2ccc(C(=O)N3CCCC3)cc2)n1", "inactive"),
    ("C=C(C)[C@@H]1CC[C@]2(C(=O)O)CC[C@]3(C)[C@H](CC[C@@H]4[C@@]5(C)C[C@@H](CC#Cc6ccc(Br)cc6)C(=O)C(C)(C)[C@@H]5CC[C@]43C)[C@@H]12", "inactive"),
    ("COc1cc(/C=C/c2sc3ccccc3[n+]2C)ccc1N(C)C", "inactive"),
    ("CCOCC(=O)N[C@H]1CCc2cc(OC(=O)COCC)c(OC)c(OC)c2-c2ccc(SC)c(=O)cc21", "inactive"),
    ("Oc1ccccc1Nc1nc2ccccc2c2occc12", "inactive"),
    ("CO/N=C(\\COc1ccc2c(c1)oc(=O)c1cc(OC)ccc12)c1cccc(OC)c1", "inactive"),
    ("COc1cc(C(=O)/C=C/c2c(-c3ccc(F)cc3)nc3ncccn23)cc(OC)c1OC", "inactive"),
    ("O=C1/C(=C/c2ccc(Cl)cc2)CN(Cc2cn(CCNc3ccnc4cc(Cl)ccc34)nn2)C/C1=C\\c1ccc(Cl)cc1", "inactive"),
    ("CO/N=C(\\COc1ccc2c(c1)oc(=O)c1cc(OC)ccc12)c1ccc(F)cc1", "inactive"),
    ("COc1cc(OC)c2cc(C(=O)O)c(=O)oc2c1", "inactive"),
    ("O=C(N1CCC(CN=c2cc3n(-c4ccc(Cl)cc4)c4ccccc4nc-3cc2Nc2ccc(Cl)cc2)CC1)N1CC1", "inactive"),
    ("COc1ccc(Cn2cc3c(c2-c2ccc(O)cc2)CCc2cnoc2-3)cc1", "inactive"),
    ("CN1C(=O)c2cc([N+](=O)[O-])ccc2[C@H]2C(=O)c3cc4c(cc3[C@H]21)OCO4", "active"),
]
